- Test system: WT HIV-1
- Method description: Anti-HIV-1 activity in MT-4 cells infected with HIV-1
- Type: cell-based
- Run conditions: selectivity index, the ratio of CC50/EC50, WT HIV-1
Documented SI across a set of compounds

Answered examples (3):
| Compound | Property measured | Reported |
| --- | --- | --- |
| Cn1c(Cn2ccc(C(F)(F)F)c(Oc3ccc4nc(Cl)ccc4c3)c2=O)n[nH]c1=O | SI | 3.68 |
| Cc1cc(Oc2c(C(F)(F)F)ccn(Cc3n[nH]c(=O)n3C)c2=O)c2cccc(C)c2n1 | SI | <1 |
| Cn1c(Cn2ccc(C(F)(F)F)c(Oc3ccc4cccnc4c3Br)c2=O)n[nH]c1=O | SI | <1 |

### Prompt Can you share its SI? I mean this compound: Cc1cncc(Oc2c(C(F)(F)F)ccn(Cc3n[nH]c(=O)n3C)c2=O)c1
### Response >616

### Prompt Find the recorded SI belonging to Cc1cc(C#N)cc(C)c1Oc1nc(Nc2ccc(C#N)cc2)nc(N)c1Br [ETR, etravirine, reference compound] and report it.
### Response >1600

### Prompt Consider the compound shown here: Cc1cc(Oc2c(C(F)(F)F)ccn(Cc3n[nH]c(=O)n3C)c2=O)c2ccccc2n1 What is its recorded SI?
### Response <1

### Prompt Fill in the blank: the reported SI of Cn1c(Cn2ccc(C(F)(F)F)c(Oc3cnc(Cl)c(Cl)c3)c2=O)n[nH]c1=O is ____.
### Response 122.98

### Prompt What does the data say about its SI? Entry: Cn1c(Cn2ccc(C(F)(F)F)c(Oc3ccc(Cl)nc3)c2=O)n[nH]c1=O
### Response >9

### Prompt Bench note: what SI did Cc1ccc(Oc2c(C(F)(F)F)ccn(Cc3n[nH]c(=O)n3C)c2=O)c(C)n1 show?
### Response <1

### Prompt # query: SI of entry Cc1ccncc1Oc1c(C(F)(F)F)ccn(Cc2n[nH]c(=O)n2C)c1=O
### Response >214
